Target: Progesterone receptor (Homo sapiens); further: assay procedure not described here
Sequence (P06401 whole entry): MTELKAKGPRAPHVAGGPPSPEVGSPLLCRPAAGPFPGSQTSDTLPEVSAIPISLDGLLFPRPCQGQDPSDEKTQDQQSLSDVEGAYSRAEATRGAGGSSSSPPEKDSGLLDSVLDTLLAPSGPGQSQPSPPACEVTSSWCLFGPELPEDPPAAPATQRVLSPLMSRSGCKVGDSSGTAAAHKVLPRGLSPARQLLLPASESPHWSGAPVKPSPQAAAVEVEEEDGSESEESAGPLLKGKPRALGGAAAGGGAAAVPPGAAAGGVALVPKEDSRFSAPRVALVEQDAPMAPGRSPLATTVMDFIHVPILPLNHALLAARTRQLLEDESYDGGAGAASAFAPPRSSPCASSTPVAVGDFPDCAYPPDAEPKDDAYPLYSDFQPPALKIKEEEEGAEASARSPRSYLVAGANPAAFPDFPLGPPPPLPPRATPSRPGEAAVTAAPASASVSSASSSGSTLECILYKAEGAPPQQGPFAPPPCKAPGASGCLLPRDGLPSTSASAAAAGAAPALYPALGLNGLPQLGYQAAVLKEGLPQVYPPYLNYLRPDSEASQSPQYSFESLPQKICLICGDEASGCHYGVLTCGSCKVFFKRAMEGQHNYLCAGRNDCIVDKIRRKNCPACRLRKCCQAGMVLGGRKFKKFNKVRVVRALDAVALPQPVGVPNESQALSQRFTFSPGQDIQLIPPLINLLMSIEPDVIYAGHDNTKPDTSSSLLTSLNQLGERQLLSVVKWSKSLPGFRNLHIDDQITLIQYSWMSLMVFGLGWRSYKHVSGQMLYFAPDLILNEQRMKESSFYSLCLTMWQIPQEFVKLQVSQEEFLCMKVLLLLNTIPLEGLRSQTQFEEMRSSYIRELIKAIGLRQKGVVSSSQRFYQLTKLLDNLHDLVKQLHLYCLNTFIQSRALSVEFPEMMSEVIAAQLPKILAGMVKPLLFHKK
Assay type: functional
Reported AC50 is given for each of the following molecules.

Answered examples (5):
Molecule: CC[N+]1(C)CCCC(OC(=O)C(O)(c2ccccc2)c2ccccc2)C1 (stereo unspecified) [PIPENZOLATE]
AC50: > 30 µM

Molecule: Nc1nc2c(c(=O)[nH]1)N(C=O)C(CNc1ccc(C(=O)N[C@@H](CCC(=O)O)C(=O)O)cc1)CN2 (stereo partly specified)
AC50: > 30 µM

Molecule: C[C@@H]1CCC[C@H](C)N1NC(=O)c1ccc(Cl)c(S(N)(=O)=O)c1 [CLOPAMIDE]
AC50: > 30 µM

Molecule: CCCC[C@H](C)C[C@H](O)/C=C/[C@H]1[C@H](O)CC(=O)[C@@H]1CCCC/C=C/C(=O)O
AC50: > 30 µM

Molecule: CCCN(CC)C(CC)C(=O)Nc1c(C)cccc1C (stereo unspecified)
AC50: > 30 µM

Entry CCCCC1(CC)C(=O)NC(=O)NC1=O ; AC50 = > 30 µM

Summary for this molecule, Nc1ccc(C(=O)O)c(O)c1 : AC50 is > 30 µM

GET /value?item= Cc1ccc(=O)n(-c2ccccc2)c1 &field=AC50 returns > 30 µM

Reported AC50 ( O=C(O)CSCC(=O)NC1CCSC1=O (stereo unspecified) ) = > 30 µM

What the record says about CN1c2ccccc2C(NCCCCCCC(=O)O)c2ccc(Cl)cc2S1(=O)=O (stereo unspecified) : AC50 is > 30 µM
